tested on: SK-MEL-28 melanoma; assay: NCI tumour cell line growth inhibition, 48 h
outcome.measure: TGI (µM)
Number in µM, nothing else.

The following compounds have reported results that may help.
> print(dat)
                                   compound  measurement.target  outcome.measure  quantitative.result
1  CC(C)c1ccc2[nH]c(O)c(-c3[nH]c4ccccc4c3N=O)c2c1  SK-MEL-28 melanoma              TGI                 26.7
2  COc1ccc2[nH]c3c(C)c4c(c(C)c3c2c1)CN(C)CC4  SK-MEL-28 melanoma              TGI                 27.5
3  N#CSCC1CC(O)(c2ccccc2)C(c2ccccc2)C(c2ccc(Cl)cc2)O1 (stereo not given)  SK-MEL-28 melanoma              TGI                  4.5

Next up:
Look up TGI for this compound: O=C(NCCOCCOCCNc1cccc2c1C(=O)N(C1CCCNC1=O)C2=O)c1cc2c(o1)C(=O)c1ccccc1C2=O (stereo not given)
4.61
